Known Minimum Inhibitory Concentration E. coli of a selection of compounds
# Test system: Escherichia coli (MC4100)
# Method: microbe, parasite or virus in culture
# Assay type: cell-based

| Record smiles | Minimum Inhibitory Concentration E. coli (µM) |
| --- | --- |
| CCCCCCCCCCCC[P+](CC[P+](CCCCCCCCCCCC)(c1ccccc1)c1ccccc1)(CC[P+](CCCCCCCCCCCC)(c1ccccc1)c1ccccc1)CC[P+](CCCCCCCCCCCC)(c1ccccc1)c1ccccc1 | 250 |
| CCCCCCCCCCCCC[P+](CC[P+](CCCCCCCCCCCCC)(c1ccccc1)c1ccccc1)(CC[P+](CCCCCCCCCCCCC)(c1ccccc1)c1ccccc1)c1ccccc1 | 125 |
| CCCCCCCCCCCCC[P+](c1ccccc1)(c1ccccc1)c1ccccc1 | 4 |
